system: U-251; assay: NCI tumour cell line growth inhibition, 48 h
Calls of active or inactive are those of the source. Rule as the data show it: active = GI50 up to about 1.1 µM and inactive = higher.
Reported GI50 is given for each of the following compounds.
PROPERTY: GI50

compound=NCCCN(CCCN)CCCNCc1c2ccccc2c(CNCCCN(CCCN)CCCN)c2ccccc12 property=GI50 measured_result="16.7 µM (inactive)"
compound=O=S(O)CCCCCSSc1ccccc1 property=GI50 measured_result="21.3 µM (inactive)"
compound="c1ccc2c(c1)C1CCCCCC21N1CCOCC1 (centres undefined)" property=GI50 measured_result="78.5 µM (inactive)"
compound=Oc1cc(-c2ccc(Cl)cc2)nc2ncccc12 property=GI50 measured_result="36.6 µM (inactive)"
compound="CC1CC2(CC[C@@H]1O)OCCO2 (some centres undefined)" property=GI50 measured_result="> 100 µM (inactive)"
compound="Cc1c(Cl)ccc2c1NC(=O)C2(O)CC(=O)c1ccc(Cl)cc1 (centres undefined)" property=GI50 measured_result="60.8 µM (inactive)"
compound=Cn1c([C@H](C#N)c2ncccc2[N+](=O)[O-])nc2ccccc21 property=GI50 measured_result="34.8 µM (inactive)"
compound=CN(C)/C=N/S(=O)(=O)c1nn2c(C=O)c(-c3ccc(-c4ccc([N+](=O)[O-])cc4)o3)nc2s1 property=GI50 measured_result="2.25 µM (inactive)"
compound="O=P(Nc1ccc(Cl)cc1)(Oc1ccccc1)N(CCCl)CCCl (centres undefined)" property=GI50 measured_result="> 100 µM (inactive)"
compound="c1cnc2c(c1)-n1cccc1C1(CCSC1)NN2 (centres undefined)" property=GI50 measured_result="> 100 µM (inactive)"
compound=Cc1nc2c(ccc3ncccc32)[nH]1 property=GI50 measured_result="> 100 µM (inactive)"
compound=Nc1ccc(C(=O)O)cc1 property=GI50 measured_result="> 100 µM (inactive)"
compound=O=C1NC(NNc2ccccc2)=N/C1=C\c1ccco1 property=GI50 measured_result="17.7 µM (inactive)"
compound="COc1ccc(C2OC(=O)c3ccc4ccccc4c32)c(C)c1 (centres undefined)" property=GI50 measured_result="4.86 µM (inactive)"

* * *

Reported GI50 is given for each of the following compounds.
system: T47D; assay: NCI tumour cell line growth inhibition, 48 h
Active and inactive are the calls of the source. No stated cut-off is given here; in the data, active = GI50 up to about 1.1 µM and inactive = higher.
PROPERTY: GI50

compound=COc1ccc(/C=C(\C#N)c2nc3ccccc3c(=O)[nH]2)cc1 test_target=T47D property=GI50 measured_result="20.6 µM (inactive)"
compound="Cc1nnc(N)nc1C/C=C/C(C)Sc1ccc(Cl)cc1 (stereo not drawn)" test_target=T47D property=GI50 measured_result="8.07 µM (inactive)"
compound="CC(C)=CC1C(COC(=O)c2ccccc2Cl)C1(C)C (stereo not drawn)" test_target=T47D property=GI50 measured_result="50.6 µM (inactive)"

* * *

tested on: TK-10; assay: NCI tumour cell line growth inhibition, 48 h
Active and inactive are the calls of the source. No stated cut-off is given here; in the data, active = GI50 up to about 1.1 µM and inactive = higher.
Reported GI50 is given for each of the following compounds.
PROPERTY: GI50

compound=C=C(C)[C@@]1(O)CCC[C@H]1NC(=O)OC(C)(C)C test_target=TK-10 measured_result="> 100 µM (inactive)"
compound="C=CCC12CC(=O)CCC1c1ccc(OC)cc1C2=O (stereo not drawn)" test_target=TK-10 measured_result="> 100 µM (inactive)"
compound=CC(=O)Nc1ccc(/C=C/C(=O)c2sc(-n3nc(-c4ccccc4)cc3-c3ccccc3)nc2C)cc1 test_target=TK-10 measured_result="> 10 µM (inactive)"
compound=O=c1c(Cl)cc2nc3ccccc3sc-2c1Cl test_target=TK-10 measured_result="17.9 µM (inactive)"
compound="CC(=O)C1C(=O)C(=O)N(c2ccccc2N2C(=O)C(=O)C(C(C)=O)C2=O)C1=O (stereo not drawn)" test_target=TK-10 measured_result="> 100 µM (inactive)"
compound=C1CSCC2(COC2)CSCCSCC2(COC2)CS1 test_target=TK-10 measured_result="> 100 µM (inactive)"
compound=COc1cccc(/N=C/c2cc(OC)c(OC)c(OC)c2)c1 test_target=TK-10 measured_result="> 100 µM (inactive)"
compound=Cc1c(C)c(S(=O)(=O)N(CCCCCON)OCCCN)c(C)c2c1OC(C)(C)CC2 test_target=TK-10 measured_result="14.3 µM (inactive)"
